Exercise: state measured Maximum mean fluorescence intensity for each of the binders provided.
- tested on: T1, monkey CD19 on HEK293T-monkey CD19 cells (monkey)
- T1 construct: whole, on cells
- test method notes: FACS on HEK293T-monkey CD19 cells
Answer with a bare number; do not write a unit.

In: Look up Maximum mean fluorescence intensity for this binder: F4.48.12 (antibody, human IgG1, V domains shown, human-murine chimeric antibody, human IgG1) VH: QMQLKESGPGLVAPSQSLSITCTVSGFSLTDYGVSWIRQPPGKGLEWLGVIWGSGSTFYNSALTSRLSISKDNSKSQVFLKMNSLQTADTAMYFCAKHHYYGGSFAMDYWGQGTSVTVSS VL: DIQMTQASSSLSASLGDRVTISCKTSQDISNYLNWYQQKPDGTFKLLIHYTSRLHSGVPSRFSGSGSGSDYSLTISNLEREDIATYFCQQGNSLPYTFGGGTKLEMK
Out: 14300

In: Look up Maximum mean fluorescence intensity for this binder: F4.18.13 (antibody, human IgG1, V domains shown, human-murine chimeric antibody, human IgG1) VH: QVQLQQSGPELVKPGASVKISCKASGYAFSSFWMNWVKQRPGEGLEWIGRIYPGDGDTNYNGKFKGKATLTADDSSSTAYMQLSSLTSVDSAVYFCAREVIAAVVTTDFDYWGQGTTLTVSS VL: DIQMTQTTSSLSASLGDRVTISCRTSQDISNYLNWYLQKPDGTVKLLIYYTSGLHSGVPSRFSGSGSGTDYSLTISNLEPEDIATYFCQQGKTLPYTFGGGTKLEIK
Out: 19700
